Molecular target: UniProtKB P00734
Test: biochemical
Settings: read-out: Kass Human Thrombin (converted)
Where a name gives a salt, the structure may show the parent alone.
attribute-measured: Kd (nM)

CCC(CC)C(=O)N[C@@H](CCS(C)(=O)=O)C(=O)N1CCC[C@H]1C(=O)NCc1ccc(C(=N)N)cc1 [Example 91]
278
N=C(N)C1CCC(CNC(=O)[C@@H]2CCCN2C(=O)[C@@H](CC2CCCCC2)NCC(=O)O)NC1 (stereo partly drawn) [Example 67]
90.9
N=C(N)c1cccc(CNC(=O)[C@@H]2CCCN2C(=O)[C@@H]2NCC[C@@H]3CCCC[C@@H]32)c1 [Example 25, D-1-Piq-Pro-m-NHCH2-C6H4C(=NH)NH2·HCl]
2330
N=C(N)N1CCC(CNC(=O)[C@@H]2CCCN2C(=O)[C@@H](CC2CCCCC2)NCC(=O)O)CC1 [Example 56]
2.04

1 = O=C(O)CN[C@H](CC1CCCCC1)C(=O)N1CCC[C@H]1C(=O)NCCC1=CCNCC1 [Example 59]
2 = CCS(=O)(=O)N[C@H](Cc1ccccc1)C(=O)N1[C@H](C(=O)NCc2ccc(C(=N)N)cc2)C[C@@H]2CCCC[C@@H]21 [Example 45]
Q: Choose between 1 and 2 : whose measured Kd value is numerically larger? Provide the label of your selected option as the answer.
Result: 1

Each recorded value in this set is attributed to patent EP0672658B1.
